Test system: unfractionated heparin (UFH)
Assay Protocol: aPTT clotting assay, UFH 0.2 U/mL in plasma (Example 7)
Format: biochemical
Condition: UFH 0.2 U/mL in plasma
Procedure: aPTT clotting Assay. Unfractionated heparin was mixed with plasma at a final concentration of 0.2 U/mL. […] The ACL Elite Hemostasis analyzer (Beckman Coulter™) was used to add aPTT reagent (HemosIL SynthASil) to supplemented plasma. Clotting was initiated by addition of CaCl2 and time to clot was recorded.
Measurement Type: UFH (aPTT) EC50

UFH (aPTT) EC50 reported for this compound COc1ccc(NC(=O)[C@@H](Cc2c[nH]c3ccccc23)NC(=O)c2cc(NC(=O)[C@@H](CCCNC(=N)N)NC(=O)c3cc(NC(=O)[C@@H](CCCNC(=N)N)NC(=O)c4cc(NC(=O)[C@H](N)CCCNC(=N)N)ccc4OC)ccc3OC)ccc2OC)cc1C(N)=O : 3.09 µg/mL

UFH (aPTT) EC50 reported for this compound COc1ccc(NC(=O)[C@H](CCCCN)NC(=O)c2cc(NC(=O)[C@H](CCCNC(=N)N)NC(=O)c3cc(NC(=O)[C@H](CCCCN)NC(=O)c4cc(NC(=O)[C@@H](N)CCCCN)ccc4OC)ccc3OC)ccc2OC)cc1C(N)=O : 3.02 µg/mL

UFH (aPTT) EC50 reported for this compound COc1ccc(NC(=O)[C@@H](CCCNC(=N)N)NC(=O)c2cc(NC(=O)[C@@H](CCCNC(=N)N)NC(=O)c3cc(NC(=O)[C@@H](CCCNC(=N)N)NC(=O)c4cc(NC(=O)[C@H](N)CCCNC(=N)N)ccc4OC)ccc3OC)ccc2OC)cc1C(N)=O [Compound 136] : 2.91 µg/mL
